assay: Inhibition of putative Endothelin-converting enzyme partially purified from rabbit lung membranes
Where a SMILES comes first, the peptide text is derived from it. The star is where a group is joined. Cbz = O=C(OCc1ccccc1)*
RESULT TYPE: IC50 (µM)
Number in µM, nothing else.

Some compounds with recorded IC50:
COC(=O)[C@H](CC(C)C)NC(=O)[C@@H](CS)NC(=O)OCc1ccccc1 :: 4
COC(=O)[C@H](Cc1c[nH]c2ccccc12)NC(=O)[C@H](CC(C)C)NC(=O)[C@H](CS)NC(=O)OCc1ccccc1 (Cbz-Cys-Leu-Trp-OMe) :: 31
COC(=O)[C@H](Cc1c[nH]c2ccccc12)NC(=O)[C@H](CS)NC(=O)OCc1ccccc1 (Cbz-Cys-Trp-OMe) :: 47
O=C(N[C@@H](CS)C(=O)N[C@@H](Cc1c[nH]c2ccccc12)C(=O)O)OCc1ccccc1 (Cbz-Cys-Trp-OH) :: 30

Attention now turns to another entry.
Task: Note IC50 for the compound shown: CC(C)CC(C(=O)NO)C(=O)N[C@@H](Cc1c[nH]c2ccccc12)C(=O)O (stereo not given in full)
Result: 24
